The reported numbers originate from PubChem BioAssay AID2060882.

Tested on: 898857-211-R-J1-PDC complex spheroids, growth % test/control
Test: Anticancer human tumor 898857-211-R-J1-PDC patient-derived melanoma cell line growth inhibition [RAS]
Conditions: curve of first compound; second compound 0.316 µM
metric-name: IC50

Recorded results for 7 compounds are shown here.
Entry NC1c2ccccc2OC12CCN(c1cnc3c(N4CCCc5ncccc54)n[nH]c3n1)CC2 (stereo not drawn) + C#Cc1c(F)ccc2cc(O)cc(-c3ncc4c(N5CC6CCC(C5)N6)nc(OCC56CCCN5CC(F)C6)nc4c3F)c12 — recorded IC50 = > 10 µM

Entry CC(C)NCC(C(=O)N1CCN(c2ncnc3c2C(C)CC3O)CC1)c1ccc(Cl)cc1 (stereo not drawn) + C=CC(=O)N1CCN(c2nc(OCC3CCCN3C)nc3c(F)c(-c4nc(N)cc(C)c4C(F)(F)F)c(Cl)cc23)C(C)C1 — recorded IC50 = > 10 µM

Entry CC(=O)OC12COC1CC(O)C1(C)C(=O)C(O)C3=C(C)C(OC(=O)C(O)C(NC(=O)OC(C)(C)C)c4ccccc4)CC(O)(C(OC(=O)c4ccccc4)C21)C3(C)C (stereo not drawn) + C#Cc1c(F)ccc2cc(O)cc(-c3ncc4c(N5CC6CCC(C5)N6)nc(OCC56CCCN5CC(F)C6)nc4c3F)c12 — recorded IC50 = < 0.0316 µM

Entry CCN1CCN(Cc2ccc(Nc3ncc(F)c(-c4cc(F)c5nc(C)n(C(C)C)c5c4)n3)nc2)CC1 + C=CC(=O)N1CCN(c2nc(OCC3CCCN3C)nc3c(F)c(-c4nc(N)cc(C)c4C(F)(F)F)c(Cl)cc23)C(C)C1 — recorded IC50 = > 1 µM

Entry Cc1nc(N2CCC3(CC2)COC(C)C3N)c(CO)nc1Sc1ccnc(N)c1Cl (stereo not drawn) + C#Cc1c(F)ccc2cc(O)cc(-c3ncc4c(N5CC6CCC(C5)N6)nc(OCC56CCCN5CC(F)C6)nc4c3F)c12 — recorded IC50 = > 10 µM

Entry C=CC(=O)N1CCN(c2nc(OCC3CCCN3C)nc3c(F)c(-c4nc(N)cc(C)c4C(F)(F)F)c(Cl)cc23)C(C)C1 (stereo not drawn) + C#Cc1c(F)ccc2cc(O)cc(-c3ncc4c(N5CC6CCC(C5)N6)nc(OCC56CCCN5CC(F)C6)nc4c3F)c12 — recorded IC50 = > 1 µM

Entry CC(C)NCC(C(=O)N1CCN(c2ncnc3c2C(C)CC3O)CC1)c1ccc(Cl)cc1 (stereo not drawn) + C#Cc1c(F)ccc2cc(O)cc(-c3ncc4c(N5CC6CCC(C5)N6)nc(OCC56CCCN5CC(F)C6)nc4c3F)c12 — recorded IC50 = > 10 µM

Further cases:
Entry Cc1nc(N2CCC3(CC2)COC(C)C3N)c(CO)nc1Sc1ccnc(N)c1Cl (stereo not drawn) + C=CC(=O)N1CCN(c2nc(OCC3CCCN3C)nc3c(F)c(-c4nc(N)cc(C)c4C(F)(F)F)c(Cl)cc23)C(C)C1 — recorded IC50 = > 10 µM

###

System: 898857-211-R-J1-PDC complex spheroids, growth % test/control
Experiment: Anticancer human tumor 898857-211-R-J1-PDC cell line growth inhibition [RAS];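 note: spheroids exposed to compound for seven days before readout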;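 for viability, T/C: 100% = DMSO vehicle control wells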
Settings: second compound 0.00949 µM; first compound 3.16 µM; stronger effect = lower value
Each item that follows carries a reported viability, T/C.
Give the value in % but do not write % after it.

Entry CC(=O)OC12COC1CC(O)C1(C)C(=O)C(O)C3=C(C)C(OC(=O)C(O)C(NC(=O)OC(C)(C)C)c4ccccc4)CC(O)(C(OC(=O)c4ccccc4)C21)C3(C)C (centres undefined) + CCn1c(-c2cc(N3CCN(C)CC3)cnc2C(C)OC)c2c3cc(ccc31)-c1csc(n1)CC(NC(=O)C1CC1C)C(=O)N1CCCC(N1)C(=O)OCC(C)(C)C2 — recorded viability, T/C = 14.6

Entry CC(C)NCC(C(=O)N1CCN(c2ncnc3c2C(C)CC3O)CC1)c1ccc(Cl)cc1 (centres undefined) + CCn1c(-c2cc(N3CCN(C)CC3)cnc2C(C)OC)c2c3cc(ccc31)-c1csc(n1)CC(NC(=O)C1CC1C)C(=O)N1CCCC(N1)C(=O)OCC(C)(C)C2 — recorded viability, T/C = 61.4

Entry CC(=O)OC12COC1CC(O)C1(C)C(=O)C(O)C3=C(C)C(OC(=O)C(O)C(NC(=O)OC(C)(C)C)c4ccccc4)CC(O)(C(OC(=O)c4ccccc4)C21)C3(C)C (centres undefined) + CCn1c(-c2cccnc2C(C)OC)c2c3cc(ccc31)N1CCOC(CC(NC(=O)C(C(C)C)N(C)C(=O)C3(F)CCN(C(=O)C#CC(C)(C)N(C)C)CC3)C(=O)N3CCCC(N3)C(=O)OCC(C)(C)C2)C1 — recorded viability, T/C = 12.9

Entry C[C@@H](NC(=O)c1ncnc(N)c1Cl)c1ncc(C(=O)Nc2cc(C(F)(F)F)c(Cl)cn2)s1 + CCn1c(-c2cccnc2C(C)OC)c2c3cc(ccc31)N1CCOC(CC(NC(=O)C(C(C)C)N(C)C(=O)C3(F)CCN(C(=O)C#CC(C)(C)N(C)C)CC3)C(=O)N3CCCC(N3)C(=O)OCC(C)(C)C2)C1 — recorded viability, T/C = 52.1

###

Each item that follows carries a reported viability, T/C.
System: 898857-211-R-J1-PDC complex spheroids, growth % test/control
Test: Anticancer human tumor 898857-211-R-J1-PDC cell line growth inhibition [RAS];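 note: spheroids exposed to compound for seven days before readout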;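 for viability, T/C: 100% = DMSO vehicle control wells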
Conditions: second compound 0.0949 µM; first compound 0.1 µM; stronger effect = lower value
Give the value in % but do not write % after it.

Recorded results for 5 compounds are shown here.
Entry CC(C)NCC(C(=O)N1CCN(c2ncnc3c2C(C)CC3O)CC1)c1ccc(Cl)cc1 (stereo not drawn) + CCn1c(-c2cc(N3CCN(C)CC3)cnc2C(C)OC)c2c3cc(ccc31)-c1csc(n1)CC(NC(=O)C1CC1C)C(=O)N1CCCC(N1)C(=O)OCC(C)(C)C2 — recorded viability, T/C = 107

Entry Cc1nc(N2CCC3(CC2)COC(C)C3N)c(CO)nc1Sc1ccnc(N)c1Cl (stereo not drawn) + CCn1c(-c2cccnc2C(C)OC)c2c3cc(ccc31)N1CCOC(CC(NC(=O)C(C(C)C)N(C)C(=O)C3(F)CCN(C(=O)C#CC(C)(C)N(C)C)CC3)C(=O)N3CCCC(N3)C(=O)OCC(C)(C)C2)C1 — recorded viability, T/C = 100

Entry CC1(O)CCCC1n1c(=O)c(C(F)F)cc2cnc(NC3CCN(S(C)(=O)=O)CC3)nc21 (stereo not drawn) + CCn1c(-c2cc(N3CCN(C)CC3)cnc2C(C)OC)c2c3cc(ccc31)-c1csc(n1)CC(NC(=O)C1CC1C)C(=O)N1CCCC(N1)C(=O)OCC(C)(C)C2 — recorded viability, T/C = 53.6

Entry C[C@@H](NC(=O)c1ncnc(N)c1Cl)c1ncc(C(=O)Nc2cc(C(F)(F)F)c(Cl)cn2)s1 + CCn1c(-c2cc(N3CCN(C)CC3)cnc2C(C)OC)c2c3cc(ccc31)-c1csc(n1)CC(NC(=O)C1CC1C)C(=O)N1CCCC(N1)C(=O)OCC(C)(C)C2 — recorded viability, T/C = 106

Entry CC(Nc1ccc2c(c1)OCCn1cc(N3C(=O)OCC3C(F)F)nc1-2)C(N)=O (stereo not drawn) + CCn1c(-c2cc(N3CCN(C)CC3)cnc2C(C)OC)c2c3cc(ccc31)-c1csc(n1)CC(NC(=O)C1CC1C)C(=O)N1CCCC(N1)C(=O)OCC(C)(C)C2 — recorded viability, T/C = 85.1

Further cases:
Entry Nc1ccn(C2OC(CO)C(O)C2(F)F)c(=O)n1 (stereo not drawn) + CCn1c(-c2cccnc2C(C)OC)c2c3cc(ccc31)N1CCOC(CC(NC(=O)C(C(C)C)N(C)C(=O)C3(F)CCN(C(=O)C#CC(C)(C)N(C)C)CC3)C(=O)N3CCCC(N3)C(=O)OCC(C)(C)C2)C1 — recorded viability, T/C = 3.36

Entry CC(=O)OC12COC1CC(O)C1(C)C(=O)C(O)C3=C(C)C(OC(=O)C(O)C(NC(=O)OC(C)(C)C)c4ccccc4)CC(O)(C(OC(=O)c4ccccc4)C21)C3(C)C (stereo not drawn) + CCn1c(-c2cc(N3CCN(C)CC3)cnc2C(C)OC)c2c3cc(ccc31)-c1csc(n1)CC(NC(=O)C1CC1C)C(=O)N1CCCC(N1)C(=O)OCC(C)(C)C2 — recorded viability, T/C = 12.2

Entry C=CC(=O)N1CCN(c2nc(OCC3CCCN3C)nc3c(F)c(-c4nc(N)cc(C)c4C(F)(F)F)c(Cl)cc23)C(C)C1 (stereo not drawn) + CCn1c(-c2cc(N3CCN(C)CC3)cnc2C(C)OC)c2c3cc(ccc31)-c1csc(n1)CC(NC(=O)C1CC1C)C(=O)N1CCCC(N1)C(=O)OCC(C)(C)C2 — recorded viability, T/C = 116

###

Test system: 898857-211-R-J1-PDC complex spheroids, growth % test/control
Assay: Anticancer human tumor 898857-211-R-J1-PDC cell line growth inhibition [RAS];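 note: spheroids exposed to compound for seven days before readout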;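 for viability, T/C: 100% = DMSO vehicle control wells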
Details: second compound 0.316 µM; first compound 1 µM; stronger effect = lower value
Rule for this label: yes (1) means viability, T/C is less than 90%; no (0) means viability, T/C is at least 90%.

Use these answered entries as a reference point.
Input: Consider the compound CC1(O)CCCC1n1c(=O)c(C(F)F)cc2cnc(NC3CCN(S(C)(=O)=O)CC3)nc21 (stereo unspecified) + C#Cc1c(F)ccc2cc(O)cc(-c3ncc4c(N5CC6CCC(C5)N6)nc(OCC56CCCN5CC(F)C6)nc4c3F)c12 . Is its viability, T/C strictly less than 90%?
Output: yes (1)

Input: Consider the compound CC(Nc1ccc2c(c1)OCCn1cc(N3C(=O)OCC3C(F)F)nc1-2)C(N)=O (stereo unspecified) + C#Cc1c(F)ccc2cc(O)cc(-c3ncc4c(N5CC6CCC(C5)N6)nc(OCC56CCCN5CC(F)C6)nc4c3F)c12 . Is its viability, T/C strictly less than 90%?
Output: no (0)

Input: Consider the compound NC1c2ccccc2OC12CCN(c1cnc3c(N4CCCc5ncccc54)n[nH]c3n1)CC2 (stereo unspecified) + C=CC(=O)N1CCN(c2nc(OCC3CCCN3C)nc3c(F)c(-c4nc(N)cc(C)c4C(F)(F)F)c(Cl)cc23)C(C)C1 . Is its viability, T/C strictly less than 90%?
Output: no (0)

Input: Consider the compound CC(Nc1ccc2c(c1)OCCn1cc(N3C(=O)OCC3C(F)F)nc1-2)C(N)=O (stereo unspecified) + C=CC(=O)N1CCN(c2nc(OCC3CCCN3C)nc3c(F)c(-c4nc(N)cc(C)c4C(F)(F)F)c(Cl)cc23)C(C)C1 . Is its viability, T/C strictly less than 90%?
Output: no (0)

Proceed to the following item.
Input: Consider the compound Nc1ccn(C2OC(CO)C(O)C2(F)F)c(=O)n1 (stereo unspecified) + C=CC(=O)N1CCN(c2nc(OCC3CCCN3C)nc3c(F)c(-c4nc(N)cc(C)c4C(F)(F)F)c(Cl)cc23)C(C)C1 . Is its viability, T/C strictly less than 90%?
Output: yes (1)
